B1: DYRK1B (parent)
chain: YQGPGTRRLQEVLGVQTGGPGGRR

Variants of: B1
assay_explanation: protein stability index of a GFP-peptide fusion (GPS, HEK-293T) (PSI 1-6); higher = more stable;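 further: lentivirally expressed fusions sorted by FACS into six bins by GFP to DsRed ratio, PSI derived from sequencing read proportions per bin multiplied by bin number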
measurement_setup: c terminus: a fixed tail appended
# protein stability index per record follows
Respond with the number and no other words.

Reference set (4 entries):
YQGPGTRNLQEVLGVQTGGPGGRR [R8N] ... 3.45
YQGPGTVRLQEVLGVQTGGPGGRR [R7V] ... 3.03
YQGPGTRRLQEVLTVQTGGPGGRR [G14T] ... 2.66
YQGPVTRRLQEVLGVQTGGPGGRR [G5V] ... 3.4

// recorded protein stability index for EQGPGTRRLQEVLGVQTGGPGGRR [Y1E] : 4.83

// recorded protein stability index for YQGPGTRRLQEVQGVQTGGPGGRR [L13Q] : 3.89

// recorded protein stability index for YQGPGTRRLQEVLGVQTGLPGGRR [G19L] : 2.81

// recorded protein stability index for YQGPGTRRLQEVTGVQTGGPGGRR [L13T] : 3.97

// recorded protein stability index for YQGPGTRRLQECLGVQTGGPGGRR [V12C] : 3.26
